- study-target: plasma purified human complement protein C3 (human) (UniProt P01024)
- Sequence (P01024 23-667, chain 1 of 2): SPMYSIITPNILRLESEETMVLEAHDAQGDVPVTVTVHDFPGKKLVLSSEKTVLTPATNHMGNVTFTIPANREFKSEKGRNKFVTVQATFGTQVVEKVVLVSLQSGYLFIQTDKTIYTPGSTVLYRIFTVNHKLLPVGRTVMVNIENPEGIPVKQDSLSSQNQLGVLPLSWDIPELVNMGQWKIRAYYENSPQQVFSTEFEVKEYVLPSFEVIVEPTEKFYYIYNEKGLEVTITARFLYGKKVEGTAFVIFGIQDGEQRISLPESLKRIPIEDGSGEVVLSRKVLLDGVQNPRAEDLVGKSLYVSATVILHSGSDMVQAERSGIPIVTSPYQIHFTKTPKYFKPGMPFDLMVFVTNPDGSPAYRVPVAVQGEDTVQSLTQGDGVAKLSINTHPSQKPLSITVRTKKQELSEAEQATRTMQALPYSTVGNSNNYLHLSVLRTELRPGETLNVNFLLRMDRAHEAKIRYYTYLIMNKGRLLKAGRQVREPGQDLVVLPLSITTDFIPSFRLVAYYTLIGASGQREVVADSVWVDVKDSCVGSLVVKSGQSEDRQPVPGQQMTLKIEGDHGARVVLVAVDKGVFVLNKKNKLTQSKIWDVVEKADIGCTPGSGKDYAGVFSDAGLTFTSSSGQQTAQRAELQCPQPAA
- Sequence (P01024 672-1663, chain 2 of 2): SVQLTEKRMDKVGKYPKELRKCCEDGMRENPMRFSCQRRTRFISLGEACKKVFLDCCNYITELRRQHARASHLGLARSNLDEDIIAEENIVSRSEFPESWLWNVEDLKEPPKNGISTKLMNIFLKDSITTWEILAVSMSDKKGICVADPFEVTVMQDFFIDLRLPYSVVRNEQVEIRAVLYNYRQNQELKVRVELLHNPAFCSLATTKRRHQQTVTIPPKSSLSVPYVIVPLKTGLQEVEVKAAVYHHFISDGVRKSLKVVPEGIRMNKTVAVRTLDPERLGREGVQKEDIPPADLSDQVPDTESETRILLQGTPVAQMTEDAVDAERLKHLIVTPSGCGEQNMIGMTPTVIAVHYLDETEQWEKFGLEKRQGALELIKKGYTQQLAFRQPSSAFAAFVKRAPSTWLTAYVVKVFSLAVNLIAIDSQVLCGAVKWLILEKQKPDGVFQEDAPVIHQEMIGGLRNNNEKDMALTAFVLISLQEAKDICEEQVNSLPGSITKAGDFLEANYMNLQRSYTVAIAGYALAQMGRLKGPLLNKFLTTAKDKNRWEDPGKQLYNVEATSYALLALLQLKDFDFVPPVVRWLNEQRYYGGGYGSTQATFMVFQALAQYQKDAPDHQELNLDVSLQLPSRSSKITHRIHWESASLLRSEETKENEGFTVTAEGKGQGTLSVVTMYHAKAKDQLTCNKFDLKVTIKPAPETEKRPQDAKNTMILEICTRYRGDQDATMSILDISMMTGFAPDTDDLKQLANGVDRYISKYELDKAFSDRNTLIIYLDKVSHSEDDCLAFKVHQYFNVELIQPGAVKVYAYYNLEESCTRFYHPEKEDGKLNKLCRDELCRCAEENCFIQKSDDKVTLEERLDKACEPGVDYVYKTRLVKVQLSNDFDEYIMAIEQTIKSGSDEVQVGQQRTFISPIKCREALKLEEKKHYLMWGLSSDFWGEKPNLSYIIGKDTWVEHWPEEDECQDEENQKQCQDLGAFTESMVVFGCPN
- protocol: cell-based or functional assay
Some binders, each annotated with its measured EC50 of hC3 cleavage.
Report only the number, with the unit nM understood.

Reference set (3 entries):
MTSP-1 F97T/ins97aE/T98G/F99L/C122S/Q175L/Q192E (enzyme) VVGGTDADEGEWPWQVSLHALGQGHICGASLISPNWLVSAAHCYIDDRGFRYSDPTQWTAFLGLHDQSQRSAPGVQERRLKRIISHPFFNDTEGLDYDIALLELEKPAEYSSMVRPISLPDASHVFPAGKAIWVTGWGHTQYGGTGALILQKGEIRVINQTTCENLLPQLITPRMMCVGFLSGGVDSCEGDSGGPLSSVEADGRIFQAGVVSWGDGCAQRNKPGVYTRLPLFRDWIKENTGV    259
MTSP-1 Q38H/I41S/D60bT/Y60gW/D96K/F97G/ins97aV/T98P/F99L/C122S/G151H/Q175L/Q192D (enzyme) VVGGTDADEGEWPWQVSLHALGHGHSCGASLISPNWLVSAAHCYIDTRGFRWSDPTQWTAFLGLHDQSQRSAPGVQERRLKRIISHPFFNKGVPLDYDIALLELEKPAEYSSMVRPISLPDASHVFPAGKAIWVTGWGHTQYGGTHALILQKGEIRVINQTTCENLLPQLITPRMMCVGFLSGGVDSCDGDSGGPLSSVEADGRIFQAGVVSWGDGCAQRNKPGVYTRLPLFRDWIKENTGV    8.64
MTSP-1 ins97aN/F97H/T98D/F99L/C122S/Q192E/D217Q/K224S (enzyme) VVGGTDADEGEWPWQVSLHALGQGHICGASLISPNWLVSAAHCYIDDRGFRYSDPTQWTAFLGLHDQSQRSAPGVQERRLKRIISHPFFNDHNDLDYDIALLELEKPAEYSSMVRPISLPDASHVFPAGKAIWVTGWGHTQYGGTGALILQKGEIRVINQTTCENLLPQQITPRMMCVGFLSGGVDSCEGDSGGPLSSVEADGRIFQAGVVSWGQGCAQRNSPGVYTRLPLFRDWIKENTGV    2750

// returns reported EC50 of hC3 cleavage for input MTSP-1 Q38H/I41S/D60bT/F60eS/Y60gW/ins97aV/F97D/T98P/F99L/C122S/G151H/Q175L/Q192D (enzyme) VVGGTDADEGEWPWQVSLHALGHGHSCGASLISPNWLVSAAHCYIDTRGSRWSDPTQWTAFLGLHDQSQRSAPGVQERRLKRIISHPFFNDDVPLDYDIALLELEKPAEYSSMVRPISLPDASHVFPAGKAIWVTGWGHTQYGGTHALILQKGEIRVINQTTCENLLPQLITPRMMCVGFLSGGVDSCDGDSGGPLSSVEADGRIFQAGVVSWGDGCAQRNKPGVYTRLPLFRDWIKENTGV
12.6

// returns reported EC50 of hC3 cleavage for input MTSP-1 I41R/F97T/ins97aE/T98G/F99L/C122S/G151E/Q175T/Q192E (enzyme) VVGGTDADEGEWPWQVSLHALGQGHRCGASLISPNWLVSAAHCYIDDRGFRYSDPTQWTAFLGLHDQSQRSAPGVQERRLKRIISHPFFNDTEGLDYDIALLELEKPAEYSSMVRPISLPDASHVFPAGKAIWVTGWGHTQYGGTEALILQKGEIRVINQTTCENLLPQTITPRMMCVGFLSGGVDSCEGDSGGPLSSVEADGRIFQAGVVSWGDGCAQRNKPGVYTRLPLFRDWIKENTGV
363
